# experimental-target: T1, YFP-tagged human APJ receptor (human, UniProt P35414 1-380)
# T1 construct: whole, on cells; also called hAPJ; APJ WT; not shown: YFP tag
# T1 sequence (looked up): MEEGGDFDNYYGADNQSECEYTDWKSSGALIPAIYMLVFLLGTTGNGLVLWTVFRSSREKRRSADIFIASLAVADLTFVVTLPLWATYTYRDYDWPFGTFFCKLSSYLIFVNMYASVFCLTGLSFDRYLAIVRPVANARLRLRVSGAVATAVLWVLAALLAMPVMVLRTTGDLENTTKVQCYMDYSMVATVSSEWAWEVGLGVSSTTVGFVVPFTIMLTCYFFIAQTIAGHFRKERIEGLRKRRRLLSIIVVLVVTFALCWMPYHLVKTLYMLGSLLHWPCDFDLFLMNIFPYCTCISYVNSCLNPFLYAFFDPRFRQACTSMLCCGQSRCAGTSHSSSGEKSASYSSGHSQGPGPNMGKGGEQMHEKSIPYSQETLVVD
# experimental-protocol: competitive radioligand binding, HEK293-hAPJ membranes
Bridge positions count the residues as written; N and C are the ends. Square brackets hold non-standard residues; d marks the D form. Ends that are not written are not given here. * marks the point of attachment. Oic = O=C(O)[C@@H]1C[C@@H]2CCCC[C@@H]2N1; Phe(4-Br) = N[C@@H](Cc1ccc(Br)cc1)C(=O)O; Benzoyl(4-Br) = O=C(c1ccc(Br)cc1)*; Nle = CCCC[C@H](N)C(=O)O
observation-type: pKi
// pKi: -log10(molar conc.)

Some solved entries appear below for comparison.
What does the record list as pKi for [Nle]PEHSRKPFP (lactam 3-7) [Compound 84 (ABB01-109)] ?
6.56

Entry {Benzoyl(4-Br)}-RRSEPLHKRVP[Phe(4-Br)]P (lactam 4-8) [Compound 94 (KT04-16)] please
9.54

Others:
What does the record list as pKi for KRRE[Nle]PLHSRV[Oic]FP (lactam 1-4) [Compound 73 (AM03-66)] ?
7.96
